// data source = patent US20210170043A1

Molecular target: T1, DC-SIGN Carbohydrate Recognition Domain (CRD), His-tagged (human, UniProt Q9NNX6 250-404)
T1 construct: also called DC-SIGN CRD; not shown: His tag used for capture
T1 sequence: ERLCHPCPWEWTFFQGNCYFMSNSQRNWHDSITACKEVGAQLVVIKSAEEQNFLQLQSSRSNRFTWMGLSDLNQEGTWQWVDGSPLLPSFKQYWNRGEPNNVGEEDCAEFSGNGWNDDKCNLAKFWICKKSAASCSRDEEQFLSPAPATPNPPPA
Assay: SPR (Biacore 8K), His-tagged DC-SIGN CRD captured at high density on chip, antibody as analyte
A collection of binders and their measured Kd
Numeric only. Scale: nM

// below: answered binders
960K03 Parental (antibody, V domains shown) VH: QVTLRESGPALVKPTQTLTLTCTFSGFSLSTGGMCVSWIRQPPGKALEWLALIDWDDDKYYSTSLKTRLTISKDTSKNQLVLTMTNMDPVDTATYYCARAHSGSYFDFWGQGTLVTVSS VL: DIQMTQSPSTLSASVGDRVTITCRASQRISNWLAWYQQKPGKAPKLLIYKASSLESGVPSRFSGSGSGTEFTLTISSLQPDDFATYYCQQFNSYWTFGQGTKVEIKR ... 0.8
914M09 Parental (antibody, human IgG1, kappa, V domains shown) VH: QVQLQESGPGLVKPSETLSLTCAVSGGSISSYYWNLIRQPAGKGLEWIGRIYTSGSTNYNPSLKSRVTMSVDTSKNQFSLKLSSVTAADTAVYYCARDSGGFYYYYGMDVWGQGTTVTVSS VL: DIQLTQSPSFLSASVGDRVTITCRASQGISSYLAWYQQKPGKAPKLLIYAASTLQGGVPSRFSGSGSGTEFTLTISSLQPEDFATYHCQQLNSYPWTFGQGTKVEIKR ... 10
2B2 (parental antibody) (antibody, V domains shown, also called antibody 2B2) VH: EVQLQQSGAELVRPGSSVKMSCKTSGYTFTNYGINWVKQRPGQGLEWIGYIYIGNDYTEYNERFKGKATLTSDTSSSTAHIQLNSLTSEDSAIYFCARLYYGSSLYSYAMDYWGQGTSVTVSS VL: DIVMTQAAPSVSVTPGESVSISCRSSKSLLHSSGNTYLYWFLQRPGQSPQLLISRMSNLASGVPDRFSGSGSGTAFTLRISRVEAEDVGVYYCMQHLEYPYTFGGGTKLELK ... 0.5
906C18 Parental (antibody, V domains shown) VH: EVQLVESGGGLVQPGGSLRLSCAASGFTFNNYWMNWVRQAPGKGLEWVANIRQDGSEKYYVDSVKGRFTISRDNAKNSLFLQMNSLRAEDTAVYYCARERAYCSTTSCPDYSNDYWGQGTLVTVSS VL: EIVMTQSPATLSVSPGERATLSCRASQTINNNLAWFQQKPGQTPRLLIYGASTGATGIPARFSGSGSGTEFTLTISSLQSEDFAVYYCQQYNNWPRGLTFGGGTKVEIKR ... 16
550E03 Parental (antibody, V domains shown, also called 550Ee03) VH: QVTLRESGPALVKPTQTLTLTCTFSGFSLSTSGMSVSWIRQPPGKALEWLALIDWDDDKYYSTSLKTRLTISKDTSKNQVVLTMTNMDPVDTATYYCARMALRHAFDAWGQGTMVTVSS VL: QSVLTQPPSVSGAPGQRVTISCTGSSSNIGAGYDVHWYQQLPGTAPKLLIYVNSNRPSGVPDRFSGSKSGTSASLAITGLQAEDEADYYCQSYDSSLSGWVFGGGTKLTVLG ... 5.8

Value lookup for Kd; key = 958N05 Parental (antibody, V domains shown) VH: QVTLRESGPALVKPTQTLTLTCTFSGFSLSTSGISVSWIRQPPGKALEWLALIDWDDDKYYSTSLKTRLTISKDTSKNQVVLTMTNMDPVDTATYYCARTPSGSYGRYFDLWGRGTLVTVSS VL: DIQLTQSPSTLSASVGDRVTITCRASQSISNWLAWYQQKPGKAPKLLIYKASSLESGVPSRFTGSGSGTEFTLTISSLQPDDFATYYCQQYNSYWTFGQGTKVEIKR
1.7

Next record, please: 952G04 Parental (antibody, V domains shown) VH: QVTLRESGPALVKPTQTLTLTCTFSGFSLSTSGVSVTWIRQPPGKALEWLALIDWDDDKYYSTSLKTRLAISKDTSKNQVVLTMTNMDPVDTATYYCARTPSGSYGRYFDLWGRGTLVTVSS VL: DIQMTQSPSTLSASVGDRVTITCRASQSISTWLAWYQQKPGKAPKLLIYEASSLESGVPSRFSGSGSGTEFTLTISSLQPDDFATYYCQQYNSYWTFGQGTKVEIKR
3.7
